Listed next: entries and their corresponding concentration that inhibited BGM cell growth.
Tested on: BGM cells (a continuous cell line of monkey origin)
Assay: Inhibition of mammalian cell replication in vitro
Type: cell-based
experimental.readout: concentration that inhibited BGM cell growth

| compound | target.or.system | measured |
| --- | --- | --- |
| O=C(O)CN1CCN(CC(=O)O)CCN(CC(=O)O)CC1 | BGM cells (a continuous cell line of monkey origin) | 0.009 mM/L |
| O=P(O)(O)CN1CCN(CP(=O)(O)O)CCN(CP(=O)(O)O)CC1 | BGM cells (a continuous cell line of monkey origin) | 0.009 mM/L |
| CCOC(=O)CN1CCN(CC(=O)OCC)CCN(CC(=O)OCC)CC1 | BGM cells (a continuous cell line of monkey origin) | 0.04 mM/L |
| O=C(O)CN(CCN(CC(=O)O)CC(=O)O)CCN(CC(=O)O)CC(=O)O [Diethylene triamine penta acetic acid, reference compound] | BGM cells (a continuous cell line of monkey origin) | 0.075 mM/L |

---

Assay: Acute intravenous toxicity in mice
Assay type: in vivo
Conditions: mouse, in vivo, 4 mM/kg, intravenous

| compound.structure | LD50 |
| --- | --- |
| O=P(O)(O)CN1CCN(CP(=O)(O)O)CCN(CP(=O)(O)O)CC1 | > 4000 µmol/kg |

---

System: AIDS virus
Experiment: Inhibition of AIDS virus replication (soluble-formazan assay for HIV-1 cytopathic effects)
Format: cell-based
Conditions: Human immunodeficiency virus 1; read-out: EC50 (inhibition of the AIDS Virion)
experimental.readout: EC50 (nM)

| compound.structure | experimental.readout | measured |
| --- | --- | --- |
| CC(C)(C)c1ccc(O)c(CN2CCN(Cc3cc(C(C)(C)C)ccc3O)CCN(Cc3cc(C(C)(C)C)ccc3O)CC2)c1 | EC50 | 3000 |

---

Target sequence: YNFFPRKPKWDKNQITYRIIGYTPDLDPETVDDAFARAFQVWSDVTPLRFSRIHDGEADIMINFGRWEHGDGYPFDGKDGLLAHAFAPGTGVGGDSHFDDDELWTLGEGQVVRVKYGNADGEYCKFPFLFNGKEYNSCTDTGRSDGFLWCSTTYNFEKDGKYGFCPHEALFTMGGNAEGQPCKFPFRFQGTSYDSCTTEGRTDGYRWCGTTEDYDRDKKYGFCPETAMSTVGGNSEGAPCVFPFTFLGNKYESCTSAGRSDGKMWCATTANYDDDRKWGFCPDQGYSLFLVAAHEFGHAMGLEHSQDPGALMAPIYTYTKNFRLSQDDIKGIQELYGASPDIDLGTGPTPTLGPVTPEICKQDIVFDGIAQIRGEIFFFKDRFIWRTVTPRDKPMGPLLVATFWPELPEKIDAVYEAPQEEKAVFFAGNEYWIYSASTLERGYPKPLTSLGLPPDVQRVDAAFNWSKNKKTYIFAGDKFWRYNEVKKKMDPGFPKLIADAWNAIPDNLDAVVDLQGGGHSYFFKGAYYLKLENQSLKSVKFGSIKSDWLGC
pIC50: −log10 of the molar value.

| compound.structure | pIC50 |
| --- | --- |
| O=P(O)(O)CN1CCN(CP(=O)(O)O)CCN(CP(=O)(O)O)CC1 | > 5.00 |

---

Tested on: HFF cells (human foreskin fibroblasts)
Experiment: Inhibition of mammalian cell replication in vitro
Assay type: cell-based
experimental.readout: concentration that inhibited HFF cell growth (mM/L)

| molecule | target.or.system | value.unit | measured |
| --- | --- | --- | --- |
| CCOC(=O)CN1CCN(CC(=O)OCC)CCN(CC(=O)OCC)CC1 | HFF cells (human foreskin fibroblasts) | mM/L | 0.16 |
| O=P(O)(O)CN1CCN(CP(=O)(O)O)CCN(CP(=O)(O)O)CC1 | HFF cells (human foreskin fibroblasts) | mM/L | 0.009 |
| O=C(O)CN1CCN(CC(=O)O)CCN(CC(=O)O)CC1 | HFF cells (human foreskin fibroblasts) | mM/L | 0.019 |
| O=C(O)CN(CCN(CC(=O)O)CC(=O)O)CCN(CC(=O)O)CC(=O)O [Diethylene triamine penta acetic acid, reference compound] | HFF cells (human foreskin fibroblasts) | mM/L | 0.3 |
